Values compiled from PubChem BioAssay.

- protocol-description: inhibitors of E-selectin induction by TNFa, primary screen, imaging, HUVEC, immunofluorescence, MLSMR starter and 10KST1 sets (AID 487);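 further: 100% = median nuclei count of all wells on the same plate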
- setup-conditions: HUVEC TNFalpha-induced E-selectin immunofluorescence imaging, at 2 µM; measured here: cell number, toxicity
assay-endpoint: nuclei count (%)
Kindly provide the numeric value in % only, without the unit symbol.

# nuclei count lookup, item C=CCN=C(NC#N)SCCc1ccccc1
161

# nuclei count lookup, item O=C(NCc1ccccc1)c1cc(-c2ccco2)on1
103

# nuclei count lookup, item CSc1nc2[nH]c3c(c2c2nnnn12)CCCC3
145

# nuclei count lookup, item O=C(CN1CCc2[nH]c3ccccc3c2C1)N1CCCCC1
124

# nuclei count lookup, item O=C(NC1CC1)c1cccc(Nc2ccc(-c3ccc4c(c3)OCCO4)nn2)c1
126

# nuclei count lookup, item Cc1nc2ccc(S(=O)(=O)NCC(=O)N3CCc4ccccc4C3)cc2s1
119

# nuclei count lookup, item CCOC(=O)c1sc(NC(=O)CSc2n[nH]c(-c3ccccc3)n2)c(C#N)c1C
122

# nuclei count lookup, item CCCn1c(SCC(N)=O)nc2c(c1=O)C1(CCCC1)Cc1ccccc1-2
170

# nuclei count lookup, item CC(C)CN(C(=O)c1ccc(=O)n(C)n1)c1nc2ccccc2s1
112

# nuclei count lookup, item CCOc1cccc(N2C(=O)CC(N(CCc3ccc(OC)c(OC)c3)C(=O)CC)C2=O)c1 (centres undefined)
120

# nuclei count lookup, item CCN(CC)CCn1c(OC)cc(=O)[nH]c1=O
114

# nuclei count lookup, item Cc1nnc(SCC(=O)NCc2ccccc2)s1
120

# nuclei count lookup, item Cn1c(=O)c2c(nc(NCc3ccco3)n2CCc2ccccc2)n(C)c1=O
121

# nuclei count lookup, item CCC1CCCCN1CCNS(=O)(=O)c1ccc2c(c1)oc(=O)n2C (centres undefined)
116

# nuclei count lookup, item CC(C)=CC(=O)N1CCCc2ccccc21
96.7

# nuclei count lookup, item Cc1nc(SCC(=O)CC(=O)OC(C)C)c(C#N)c(C)c1C
99.8

# nuclei count lookup, item COc1ccc(C(=O)Nc2ccccc2N2CCOCC2)cc1Br
153

# nuclei count lookup, item CC1N(O)C(c2ccc(Cl)cc2Cl)N(O)C1(C)C (centres undefined)
94.1

# nuclei count lookup, item CCC(C)(C(=O)NC1CCCCC1)N(Cc1ccco1)C(=O)c1cnccn1 (centres undefined)
110

# nuclei count lookup, item COC(=O)CCC(=O)Nc1cccc(Br)c1
91.4

# nuclei count lookup, item CSc1nc2c(c(=O)n1C)SC(C)C2 (centres undefined)
115

# nuclei count lookup, item O=C(NCCc1c[nH]c2ccccc12)c1cnc2n(c1=O)CCS2
90.6

# nuclei count lookup, item c1ccc(-c2ccc(-c3ccccn3)nn2)nc1
121

# nuclei count lookup, item CC(=O)Nc1cc2c(nc1C)nc(C)n2Cc1ccc(Br)cc1
118

---

- subject-of-test: Voltage-gated potassium channel subunit beta-2 (Rattus norvegicus) (UniProt P62483)
- Sequence (P62483 whole entry, looked up): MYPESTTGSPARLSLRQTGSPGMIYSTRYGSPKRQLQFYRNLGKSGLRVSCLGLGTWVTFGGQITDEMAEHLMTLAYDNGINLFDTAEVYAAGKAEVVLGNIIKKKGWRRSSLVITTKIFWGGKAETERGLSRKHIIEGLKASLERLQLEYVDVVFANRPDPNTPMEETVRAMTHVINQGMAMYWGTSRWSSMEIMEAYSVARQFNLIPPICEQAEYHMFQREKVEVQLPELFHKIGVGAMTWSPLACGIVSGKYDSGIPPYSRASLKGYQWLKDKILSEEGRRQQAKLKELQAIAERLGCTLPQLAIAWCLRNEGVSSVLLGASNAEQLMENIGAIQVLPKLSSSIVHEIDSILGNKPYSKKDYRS
- protocol-description: KvBeta enzyme negative modulators, primary screen, biochemical, NADPH fluorescence (AID 622);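 further: slope of raw intensity against log time taken from 70 to 1610 s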
- setup-conditions: recombinant KvBeta, 4-cyanobenzaldehyde reduction, at 10 µM, stronger effect = higher value
Everything with fluorescence slope lower than -0.5 is false; everything else, including exactly -0.5, is true.

Is fluorescence slope for Cc1nn(CC(=O)N2CCOCC2)c(=O)c2ccccc12 at or above -0.5?
false

Is fluorescence slope for CCCCOC(=O)c1[nH]c2c(c1C)C(=O)CC(c1cc(OC)c(OC)c(OC)c1)C2 (stereo unspecified) at or above -0.5?
false

Is fluorescence slope for O=C(NCCSc1c[nH]c2ccccc12)c1ccc(Br)o1 at or above -0.5?
false

Is fluorescence slope for O=C(c1ccccc1)c1cc(-c2ccccc2)on1 at or above -0.5?
true

Is fluorescence slope for CN(Cc1ccccc1)c1nc2c(c(=O)[nH]c(=O)n2C)n1Cc1ccccc1Cl at or above -0.5?
false

Is fluorescence slope for CCCc1cc(NCCN2CCOCC2)n2c(nc3ccccc32)c1C#N at or above -0.5?
true

Is fluorescence slope for COC(=O)C1(C(F)(F)F)N=C2Sc3ccccc3N2C(N2CCOCC2)=N1 (stereo unspecified) at or above -0.5?
false

Is fluorescence slope for Oc1ccc2ccccc2c1C=NC12CN3CCN(CN(C3)C1)C2 at or above -0.5?
true

Is fluorescence slope for CC(=O)N(C(C)=O)c1ncc2c([nH]c3ccccc32)c1C#N at or above -0.5?
true

Is fluorescence slope for COc1ccccc1C1CC(c2ccc(Cl)cc2)Nc2nc(N)nn21 (stereo unspecified) at or above -0.5?
true

Is fluorescence slope for Cc1cccnc1-n1c(CCN2C(=O)c3ccccc3C2=O)nc2ccccc2c1=O at or above -0.5?
true

Is fluorescence slope for Cc1[nH]nc(-c2ccc(O)cc2O)c1Oc1ccccc1 at or above -0.5?
true

Is fluorescence slope for Cc1cccc(-c2nnc3n2N=C(c2ccc(Br)cc2)CS3)c1 at or above -0.5?
true

Is fluorescence slope for Cc1ccccc1-n1c(=O)/c(=C\c2ccco2)s/c1=C(/C#N)C(=O)Nc1ccccc1 at or above -0.5?
true

Is fluorescence slope for CCOC(=O)CNS(=O)(=O)c1cc(-c2n[nH]c(=O)c3ccccc23)ccc1C at or above -0.5?
true

Is fluorescence slope for Cc1nn(-c2ccccc2)c(C)c1/C=N/O at or above -0.5?
true

Is fluorescence slope for COc1cc(-c2noc(-c3ccccc3C(=O)NCc3ccco3)n2)cc(OC)c1OC at or above -0.5?
false

Is fluorescence slope for O=C(c1c(F)cccc1F)N(Cc1ccccn1)C1CCCC1 at or above -0.5?
false

Is fluorescence slope for Clc1ccc(-n2ncc3c(N4CCCC4)ncnc32)cc1 at or above -0.5?
true

Is fluorescence slope for CC1(C)CCN(Cc2ccccc2)C1CC#N (stereo unspecified) at or above -0.5?
true

Is fluorescence slope for Cc1cc(NS(=O)(=O)Cc2ccccc2)cc(C)c1OCC(=O)N1CCOCC1 at or above -0.5?
true

Is fluorescence slope for CCOC(=O)C1CCCN(c2c(NCc3ccco3)c(=O)c2=O)C1 (stereo unspecified) at or above -0.5?
false

Is fluorescence slope for COCc1n[nH]c(=S)n1-c1cccc2ccccc12 at or above -0.5?
true

Is fluorescence slope for O=C(COc1ccccc1)NCC(c1cccs1)N1CCOCC1 (stereo unspecified) at or above -0.5?
true

Is fluorescence slope for O=C(CSc1nnc(NC(=O)C2CCC2)s1)NC1CC1 at or above -0.5?
true

Is fluorescence slope for COc1ccc(Br)cc1CNC(=O)CCc1nc(-c2ccc(C)cc2)no1 at or above -0.5?
true

Is fluorescence slope for OCCN=C(c1ccccc1)C12CN3CN(CN(C3)C1)C2 at or above -0.5?
true

Is fluorescence slope for C=CCSc1nc2sc(C)c(C)c2c(=O)[nH]1 at or above -0.5?
false

Is fluorescence slope for Cc1c(O)c(CN2CCCC2)cc2c1oc(=O)c1ccccc12 at or above -0.5?
true

Is fluorescence slope for O=C(O)c1cc2c(s1)CCCC2 at or above -0.5?
true

Is fluorescence slope for O=C(O)C1[C@H]2C(=O)N(Cc3cccs3)C[C@]23C=C[C@H]1O3 (stereo partly specified) at or above -0.5?
true

Is fluorescence slope for CCc1ccc(N(CC(=O)NC2CCCC2)S(=O)(=O)c2c(C)noc2C)cc1 at or above -0.5?
false

Is fluorescence slope for Cc1nnc(SCC(=O)NCCN2C(=O)CSC2=O)s1 at or above -0.5?
false

Is fluorescence slope for CC1(C)Oc2ccc3ccc(=O)oc3c2C(N2CCCCC2)C1O (stereo unspecified) at or above -0.5?
true

Is fluorescence slope for COC(=O)c1ccc(C2/C(=C(\O)c3cccc(OC)c3)C(=O)C(=O)N2CCCN(C)C)cc1 (stereo unspecified) at or above -0.5?
false

Is fluorescence slope for Cc1ccc(C2/C(=C(\O)c3ccc4c(c3)OCCO4)C(=O)C(=O)N2CCCN(C)C)o1 (stereo unspecified) at or above -0.5?
true

Is fluorescence slope for CCc1c(C(=O)NCCc2ccc(OC)c(OC)c2)[nH]c(C)c1C(C)=O at or above -0.5?
true

Is fluorescence slope for CC(C)CNS(=O)(=O)c1ccc(OCC(=O)Nc2ccc3c(c2)OCO3)c(Cl)c1 at or above -0.5?
true

Is fluorescence slope for COC(=O)CSc1nc2nc(C)cc(C)n2n1 at or above -0.5?
false

Is fluorescence slope for Cc1cccc(OCCCC(=O)O)c1 at or above -0.5?
false

Is fluorescence slope for CCCCC(NS(=O)(=O)c1ccc(OC)cc1)C(=O)O (stereo unspecified) at or above -0.5?
true

Is fluorescence slope for Cc1ccc(-c2ccc(=O)n(CCC(=O)NCCN3CCCCC3C)n2)cc1 (stereo unspecified) at or above -0.5?
true
